Biological target: GAK (Homo sapiens)
Sequence (O14976 12-347 limits assumed): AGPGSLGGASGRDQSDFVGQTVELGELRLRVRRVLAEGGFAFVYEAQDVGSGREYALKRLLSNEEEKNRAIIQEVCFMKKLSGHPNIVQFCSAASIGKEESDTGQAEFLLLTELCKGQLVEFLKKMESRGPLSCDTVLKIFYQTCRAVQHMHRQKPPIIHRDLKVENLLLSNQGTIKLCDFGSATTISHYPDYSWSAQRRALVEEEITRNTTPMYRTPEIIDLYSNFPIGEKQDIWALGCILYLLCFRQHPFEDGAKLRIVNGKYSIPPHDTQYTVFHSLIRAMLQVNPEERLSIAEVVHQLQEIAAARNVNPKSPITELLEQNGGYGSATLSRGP
Assay: biochemical
READOUT_NAME: Ki (nM)
The answer is to be given in nM; state only the numeric part.

COc1cc(Nc2c(C#N)cnc3ccc(Cl)cc23)cc(OC)c1OC	3.8
COc1cc(Nc2c(C#N)cnc3cc(I)ccc23)cc(OC)c1OC	5.2

From here, focus on the item given below.
What value of measured Ki is listed for `COc1cc(Nc2c(C#N)cnc3cc(Br)ccc23)cc(OC)c1OC` ?
2.9

----------
target: STK10 (Homo sapiens, UniProt O94804); assay: TR-FRET binding displacement assay
Sequence (O94804 36-294 limits assumed): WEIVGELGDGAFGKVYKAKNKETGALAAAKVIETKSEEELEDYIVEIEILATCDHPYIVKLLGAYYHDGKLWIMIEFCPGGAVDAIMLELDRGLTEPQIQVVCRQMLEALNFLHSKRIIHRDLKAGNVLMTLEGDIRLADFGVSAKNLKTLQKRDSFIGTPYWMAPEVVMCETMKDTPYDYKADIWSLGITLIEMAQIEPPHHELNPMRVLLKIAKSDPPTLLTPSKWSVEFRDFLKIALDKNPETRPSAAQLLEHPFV
Below, each entry is listed with its recorded log10 Ki.
Form field - Quantity: Ki; Unit: nM; Scale: log10

Previously resolved entries follow.
COc1cc(Nc2ccnc3cc(I)ccc23)cc(OC)c1OC	2.32
COc1cc(Nc2ccnc3ccc(F)cc23)cc(OC)c1OC	4.66
COc1ccc2nccc(Nc3cc(OC)c(OC)c(OC)c3)c2c1	4.08
COc1cc(Nc2ccnc3ccc(C(F)(F)F)cc23)cc(OC)c1OC	3.66
COc1cc(Nc2ccnc3ccc(Br)cc23)cc(OC)c1OC	3.66

From here, focus on the item given below.
What value of measured log10 Ki is listed for `COc1cc2nccc(Nc3cc(OC)c(OC)c(OC)c3)c2cc1OC` ?
3.04

----------
Below, each entry is listed with its recorded pKi.
target: UniProt:O94804; experiment: TR-FRET binding displacement assay
Value format note: pKi is -log10 of concentration (mol/L); just state the number.

C#Cc1cccc(Nc2c(C#N)cnc3cc(I)ccc23)c1	7.10
COc1cc(Nc2ccnc3ccc(I)cc23)cc(OC)c1OC	4.61
COc1cc(Nc2ccnc3cc(C#N)ccc23)cc(OC)c1OC	6.89
COc1cc(Nc2ccnc3ccc(S(C)(=O)=O)cc23)cc(OC)c1OC	5.62
COc1cc(Nc2ccnc3cc(F)c(F)cc23)cc(OC)c1OC	5.57
COc1cc2ncnc(Nc3ccc(F)c(Cl)c3)c2cc1OCCCN1CCOCC1	6.47
COc1cc(Nc2ccnc3ccc(C#N)cc23)cc(OC)c1OC	5.77
COc1cc(Nc2ccnc3ccc(Cl)cc23)cc(OC)c1OC	6.00
C#Cc1cccc(Nc2ccnc3cc(OCCOC)c(OCCOC)cc23)c1	6.14
COc1cc(Nc2ccnc3cc(F)ccc23)cc(OC)c1OC	5.80

// lookup pKi | system=UniProt:O94804 | key= `C#Cc1ccc(F)c(Nc2ncnc3cc(C#N)ccc23)c1`
6.17

Record: `COc1ccc2c(Nc3cc(OC)c(OC)c(OC)c3)ccnc2c1`
5.89

Record: `COc1cc(Nc2ccnc3cc(C(F)(F)F)ccc23)cc(OC)c1OC`
6.43

Every entry's value here was drawn from paper doi:10.1101/757047v1.
